Assay: protein stability index of a GFP-peptide fusion (yeast GPS) (PSI 1-4); higher = more stable; sorted into four equal gates, so the index is relative within each strain
Conditions: doa10∆
Readout label: protein stability index
Please give only the number in your answer, with no unit.

Data request: Note down protein stability index recorded for TGKYGVRYGSSLRRQVK [RPL43A]
Data returned: 3

Data request: Note down protein stability index recorded for SDSSKPAFSFGTKSNEK [YJL041W/NSP1]
Data returned: 2.97

Data request: Note down protein stability index recorded for TTFRNEYGKHDFKNEES [MED8]
Data returned: 3.05

====

Assay: protein stability index of a GFP-peptide fusion (yeast GPS) (PSI 1-4); higher = more stable; sorted into four equal gates, so the index is relative within each strain
Conditions: pdr5∆
Short version: protein stability index at least 3 is 1, less is -1.

Data request: Confirm if protein stability index reported for the sequence ALFFDPSLNPIPHFIDN [PRP8] is 3 or above.
Data returned: -1

Data request: Confirm if protein stability index reported for the sequence MGMDLYKTSKAAQDVWN [FAS1] is 3 or above.
Data returned: 1

Data request: Confirm if protein stability index reported for the sequence TETEVEREQPQENKNID [SRB4] is 3 or above.
Data returned: 1

Data request: Confirm if protein stability index reported for the sequence RFNHLVTRLFFICSIIQ [YML031W/NDC1] is 3 or above.
Data returned: -1

Data request: Confirm if protein stability index reported for the sequence ETTLGEMAEKIDFTLLN [PRP8] is 3 or above.
Data returned: 1

Data request: Confirm if protein stability index reported for the sequence KNDKLIKIEDFVDDMLR [SNF5] is 3 or above.
Data returned: -1

Data request: Confirm if protein stability index reported for the sequence YYEQFRPDLIKEDHPLE [SIR3] is 3 or above.
Data returned: -1

Data request: Confirm if protein stability index reported for the sequence NLQQDKTNFQDVILDYQ [REC8] is 3 or above.
Data returned: 1

Data request: Confirm if protein stability index reported for the sequence LLVLLQDVIKVLYQSNA [SWP82] is 3 or above.
Data returned: -1

Data request: Confirm if protein stability index reported for the sequence FMGTAFNQEGDYNFKYG [PRP8] is 3 or above.
Data returned: 1

Data request: Confirm if protein stability index reported for the sequence MNTVPFTSAPIEVTIGI [AAR2] is 3 or above.
Data returned: -1

Data request: Confirm if protein stability index reported for the sequence FSKKGNEPLSEIEIEGV [YAR002W/NUP60] is 3 or above.
Data returned: 1

Data request: Confirm if protein stability index reported for the sequence QESLVKLFTTNELMRWP [RPN5] is 3 or above.
Data returned: 1

Data request: Confirm if protein stability index reported for the sequence TVKFKHMDYDGNIVKEF [YMR129W/POM152] is 3 or above.
Data returned: -1

Data request: Confirm if protein stability index reported for the sequence YSENGKHDSLRYRLLSD [RPN1] is 3 or above.
Data returned: -1

Data request: Confirm if protein stability index reported for the sequence KKNKRALPNIENDIIKL [BRR2] is 3 or above.
Data returned: 1

Data request: Confirm if protein stability index reported for the sequence IVDGKLKTEKIFKEINE [FAS1] is 3 or above.
Data returned: -1

====

For each of the sequences below, state its protein stability index.
Test: protein stability index of a GFP-peptide fusion (yeast GPS) (PSI 1-4); higher = more stable; sorted into four equal gates, so the index is relative within each strain
Conditions: pdr5∆

Data request: Note down protein stability index recorded for ARRTLQKLGLDETYKGV [RPL5]
Data returned: 2.97

Data request: Note down protein stability index recorded for APTGSGKTNIALLTVLK [BRR2]
Data returned: 3.07

Data request: Note down protein stability index recorded for DLSTLVHSSSPSTSSNM [GAL11]
Data returned: 2.91

Data request: Note down protein stability index recorded for TLVSTDNYFNLQLNEAE [SMX3]
Data returned: 2.91

Data request: Note down protein stability index recorded for QEPSASQVKDSVTETES [SRP68]
Data returned: 2.93
